- EXPERIMENT SUMMARY: Effect of concentration on the stability of the solution (purity over time)
- EXPERIMENTAL PARAMETERS: 7 wt %; in water at 25° C.
Consider the following molecules and their measured Purity at Day 7 readings.
Use % as the unit, but write only the number.

Illustrative cases are given below, each with its answer.
CCN(CC)CCOC(=O)CCc1ccc2cc(OC)ccc2c1.Cl    98.2
CCN(CC)CCOC(=O)CC1=C(C)C(=Cc2ccc([S+](C)[O-])cc2)c2ccc(F)cc21.Cl (stereo not shown)    97.3
CCN(CC)CCOC(=O)CCc1nc(-c2ccccc2)c(-c2ccccc2)o1.Cl    98.2

Record CCN(CC)CCOC(=O)Cc1c(C)n(C(=O)c2ccc(Cl)cc2)c2ccc(OC)cc12.Cl , field Purity at Day 7: 98.2

Record CCN(CC)CCOC(=O)Cc1sc(-c2ccccc2)nc1-c1ccc(Cl)cc1.Cl , field Purity at Day 7: 98.2

Record CCN(CC)CCOC(=O)Cc1ccc(C(=O)c2ccc(C)cc2)n1C.Cl , field Purity at Day 7: 97.2

Record CCN(CC)CCOC(=O)C(C)c1ccc2oc(-c3ccc(Cl)cc3)nc2c1.Cl (stereo not shown) , field Purity at Day 7: 98.2
